pIC50 overview
tested on: various lung cancer cell lines; assay: Long term proliferation (LTP) assay in various cancer cell lines; type: cell-based; conditions: Homo sapiens, NCI-H1299, NCIH1299; Lung NSCLC non small cell carcinoma
// pIC50 here means minus log10 of the molar concentration (mol/L)

Worked cases, answers included:
1) N#Cc1sc(C(=O)Nc2cc(F)c(=O)n(CCF)c2)cc1Cl | 6.07
2) O=C(Nc1cc(F)c(=O)n(CC(F)F)c1)c1cc(Cl)c(C(F)(F)F)s1 | 6.26

Now consider the entry below.
Task item: Write down pIC50 measured for item N#Cc1cc(C(=O)Nc2cc(F)c(=O)n(CC(F)F)c2)sc1C(F)(F)F [Compound 82c]
Reply: 5.77

###

Reported values of pIC50 for individual entries
biological target: FL-SMARCA4 (Homo sapiens); experiment: SMARCA4 ATPase activity assay (ADP-Glo, chicken mononucleosome substrate); conditions: FL-SMARCA4 IC50, Table 3.2; ATPase assay, enzyme 5 nM, ATP 250 uM, chicken mononucleosome 10 nM, 30 min preincubation
Sequence (P51532 whole entry): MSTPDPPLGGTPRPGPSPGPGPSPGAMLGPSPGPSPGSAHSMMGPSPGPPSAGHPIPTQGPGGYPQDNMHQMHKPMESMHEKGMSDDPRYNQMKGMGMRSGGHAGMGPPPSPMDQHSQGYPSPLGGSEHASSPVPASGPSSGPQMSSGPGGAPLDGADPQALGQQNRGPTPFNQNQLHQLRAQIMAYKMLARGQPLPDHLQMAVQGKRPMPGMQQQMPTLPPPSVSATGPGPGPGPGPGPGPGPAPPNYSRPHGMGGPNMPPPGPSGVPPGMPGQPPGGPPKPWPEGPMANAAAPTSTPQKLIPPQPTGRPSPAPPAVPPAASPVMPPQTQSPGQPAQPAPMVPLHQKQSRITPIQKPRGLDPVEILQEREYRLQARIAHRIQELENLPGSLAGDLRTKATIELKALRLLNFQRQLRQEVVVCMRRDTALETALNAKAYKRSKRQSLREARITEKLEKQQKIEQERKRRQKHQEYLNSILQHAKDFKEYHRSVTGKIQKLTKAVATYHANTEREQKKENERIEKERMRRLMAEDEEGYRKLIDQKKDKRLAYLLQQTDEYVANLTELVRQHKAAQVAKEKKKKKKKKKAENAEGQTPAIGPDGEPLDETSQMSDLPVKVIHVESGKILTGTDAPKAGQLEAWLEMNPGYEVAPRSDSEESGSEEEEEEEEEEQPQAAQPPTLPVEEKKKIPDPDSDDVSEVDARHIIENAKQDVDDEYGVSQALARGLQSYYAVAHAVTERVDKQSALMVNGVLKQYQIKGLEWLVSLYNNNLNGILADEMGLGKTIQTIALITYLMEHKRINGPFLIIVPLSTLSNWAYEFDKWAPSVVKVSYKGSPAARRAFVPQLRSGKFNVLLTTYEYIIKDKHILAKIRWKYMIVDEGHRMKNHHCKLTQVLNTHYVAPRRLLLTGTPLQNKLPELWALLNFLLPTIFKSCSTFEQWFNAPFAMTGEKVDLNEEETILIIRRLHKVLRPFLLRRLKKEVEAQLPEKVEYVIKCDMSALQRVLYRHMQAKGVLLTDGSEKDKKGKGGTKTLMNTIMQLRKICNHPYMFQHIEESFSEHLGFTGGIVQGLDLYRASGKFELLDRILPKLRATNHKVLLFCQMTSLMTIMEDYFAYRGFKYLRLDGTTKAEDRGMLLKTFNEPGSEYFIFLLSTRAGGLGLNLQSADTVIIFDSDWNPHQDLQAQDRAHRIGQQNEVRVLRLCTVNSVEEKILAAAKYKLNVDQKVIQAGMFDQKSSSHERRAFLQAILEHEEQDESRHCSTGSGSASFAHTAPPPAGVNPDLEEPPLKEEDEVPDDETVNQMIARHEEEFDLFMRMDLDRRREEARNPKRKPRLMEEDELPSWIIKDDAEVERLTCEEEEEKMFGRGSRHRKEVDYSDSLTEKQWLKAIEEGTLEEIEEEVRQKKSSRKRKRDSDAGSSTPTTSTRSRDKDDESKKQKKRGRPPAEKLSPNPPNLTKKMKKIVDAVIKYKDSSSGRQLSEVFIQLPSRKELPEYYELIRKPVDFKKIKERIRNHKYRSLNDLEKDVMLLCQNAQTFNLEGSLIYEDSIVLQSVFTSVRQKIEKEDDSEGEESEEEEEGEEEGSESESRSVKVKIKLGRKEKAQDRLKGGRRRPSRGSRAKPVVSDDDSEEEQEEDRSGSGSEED
Kindly note that pIC50 refers to -log10 of the concentration in mol/L and answer with the value alone.

Worked cases, answers included:
1. CCn1cc(NC(=O)c2cc(Cl)c(Cl)n2C)cc(F)c1=O | 5.87
2. N#Cc1sc(C(=O)Nc2ccc(=O)n(CC(F)(F)F)c2)cc1Cl | 6.28

Here is another compound to look at.
Task item: Write down pIC50 measured for item N#Cc1ncc(C(=O)Nc2cc(C#N)c(=O)n(CCF)c2)s1
Reply: 6.93

###

biological target: FL-SMARCA2 (full-length human SMARCA2 isoform 1) (Homo sapiens); construct: FLAG tag (YKDDDDK) (C); made in house; host or cells: Sf21 insect cells (baculovirus, pFastBacI); experiment: SMARCA2 ATPase activity assay (ADP-Glo, chicken mononucleosome substrate); format: biochemical; settings: Table 3.1; ATPase assay, enzyme 5 nM, ATP 250 uM, chicken mononucleosome 10 nM, 30 min preincubation
Sequence (P51531 with tags, fused parts or gaps): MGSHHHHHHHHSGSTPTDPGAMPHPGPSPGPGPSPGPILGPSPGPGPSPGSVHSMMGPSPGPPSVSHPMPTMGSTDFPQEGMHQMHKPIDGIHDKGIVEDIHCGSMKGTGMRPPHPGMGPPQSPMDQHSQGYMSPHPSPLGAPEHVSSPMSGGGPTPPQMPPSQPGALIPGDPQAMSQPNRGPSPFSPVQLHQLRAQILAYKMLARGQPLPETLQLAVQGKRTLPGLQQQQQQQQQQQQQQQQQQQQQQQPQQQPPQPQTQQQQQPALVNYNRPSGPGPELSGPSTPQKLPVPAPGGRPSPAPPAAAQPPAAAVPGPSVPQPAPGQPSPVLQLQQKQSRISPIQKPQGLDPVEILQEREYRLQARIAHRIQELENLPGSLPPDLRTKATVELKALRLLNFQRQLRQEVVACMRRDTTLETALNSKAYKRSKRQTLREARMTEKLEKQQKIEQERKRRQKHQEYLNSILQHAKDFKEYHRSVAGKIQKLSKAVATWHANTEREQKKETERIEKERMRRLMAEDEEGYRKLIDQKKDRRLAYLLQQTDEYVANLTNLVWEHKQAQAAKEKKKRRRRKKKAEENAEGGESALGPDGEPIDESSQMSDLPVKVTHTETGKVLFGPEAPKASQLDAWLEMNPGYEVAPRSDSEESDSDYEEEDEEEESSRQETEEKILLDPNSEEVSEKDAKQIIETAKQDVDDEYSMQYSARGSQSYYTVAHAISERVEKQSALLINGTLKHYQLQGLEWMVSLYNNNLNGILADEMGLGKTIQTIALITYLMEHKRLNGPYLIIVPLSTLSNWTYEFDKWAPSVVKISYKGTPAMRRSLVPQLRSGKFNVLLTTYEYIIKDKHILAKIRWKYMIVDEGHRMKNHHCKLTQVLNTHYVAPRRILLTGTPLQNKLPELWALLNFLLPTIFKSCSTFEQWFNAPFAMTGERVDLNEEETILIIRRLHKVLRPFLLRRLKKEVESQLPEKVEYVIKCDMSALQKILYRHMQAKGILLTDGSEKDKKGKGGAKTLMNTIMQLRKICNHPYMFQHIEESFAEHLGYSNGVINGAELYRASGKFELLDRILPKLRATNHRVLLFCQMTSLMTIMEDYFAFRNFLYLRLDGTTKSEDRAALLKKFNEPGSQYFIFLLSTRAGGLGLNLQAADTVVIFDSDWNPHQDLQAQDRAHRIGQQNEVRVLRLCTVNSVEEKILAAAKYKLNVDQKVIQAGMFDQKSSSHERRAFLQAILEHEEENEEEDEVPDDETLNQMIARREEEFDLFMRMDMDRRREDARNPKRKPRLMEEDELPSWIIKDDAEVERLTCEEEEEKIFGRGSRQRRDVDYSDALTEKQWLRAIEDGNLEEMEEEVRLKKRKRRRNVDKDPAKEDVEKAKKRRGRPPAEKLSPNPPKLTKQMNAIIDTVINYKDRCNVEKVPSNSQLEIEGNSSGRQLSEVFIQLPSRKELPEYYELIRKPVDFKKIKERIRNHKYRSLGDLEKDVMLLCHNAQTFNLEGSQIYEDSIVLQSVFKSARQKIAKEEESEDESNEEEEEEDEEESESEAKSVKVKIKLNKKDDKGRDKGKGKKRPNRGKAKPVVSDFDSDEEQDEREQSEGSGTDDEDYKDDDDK
// classify: if (IC50 < 0.4 µM) label 1 else label 0

1) Cn1c(C(=O)Nc2ccc(=O)n(C3CC3)c2)cc(Cl)c1Cl | label 0
2) O=C(Nc1cc(F)c(=O)n(CC(F)F)c1)c1cc(C#Cc2cncnc2)c(Cl)s1 | label 1
3) O=C(Nc1cc(F)c(=O)n(CCF)c1)c1cnc(-n2ccnc2)s1 | label 0
4) CCn1cc(NC(=O)c2cnc(Cl)s2)cc(F)c1=O | label 1
5) N#Cc1ncc(C(=O)Nc2cc(F)c(=O)n(CC(F)(F)F)c2)o1 | label 0

Task item: Does O=C(Nc1cc(F)c(=O)n(CCF)c1)c1cnc(-n2ccnc2C(F)(F)F)s1 have IC50 strictly under 0.4 µM?
Reply: label 0

Task item: Could you please tell me whether IC50 recorded for CCCn1cc(NC(=O)c2cc(Cl)c(Cl)n2C)ccc1=O is less than 0.4 µM?
Reply: label 0

Task item: Is 0.4 µM strictly greater than the compound's reported IC50? compound: CCn1cc(NC(=O)c2cc(Cl)c(C#N)[nH]2)cc(F)c1=O
Reply: label 1

Task item: Given Cn1cc(NC(=O)c2coc(Br)c2)cc(Cl)c1=O , is recorded IC50 strictly lower than 0.4 µM?
Reply: label 0

Task item: Regarding CCn1cc(NC(=O)c2cc(OC)c(Cl)s2)ccc1=O , kindly confirm whether its IC50 is beneath 0.4 µM.
Reply: label 0

Task item: Please let me know if CCn1cc(NC(=O)c2cc(Cl)c(C#N)n2C)cc(F)c1=O shows IC50 below 0.4 µM.
Reply: label 1

Task item: Find out if reported IC50 for CCn1cc(NC(=O)c2nncs2)ccc1=O is less than 0.4 µM
Reply: label 0

Task item: Does this compound meet the criterion IC50 < 0.4 µM? CCn1cc(NC(=O)c2cn(C)c(Cl)n2)ccc1=O
Reply: label 0

Task item: Quick check: IC50 of N#Cc1ncc(C(=O)Nc2cc(C#N)c(=O)n(CCF)c2)s1 under 0.4 µM?
Reply: label 1

Task item: Lab note: confirm whether the reported IC50 for this compound is below 0.4 µM, equality not counting. compound: COCCn1cc(NC(=O)c2nc(C)n(-c3ccccc3Cl)n2)ccc1=O
Reply: label 0

Task item: Just wondering, is IC50 of CCn1cc(NC(=O)c2cc(C#N)c(C#N)s2)cc(Cl)c1=O below 0.4 µM?
Reply: label 1

Task item: Dear reviewer, please state whether CCn1cc(NC(=O)c2ccc(Cl)s2)ccc1=O has IC50 strictly beneath 0.4 µM.
Reply: label 0

Task item: Identify whether the compound O=C(Nc1cc(F)c(=O)n(CCF)c1)c1cnc(Cl)s1 records IC50 below 0.4 µM.
Reply: label 1

Task item: hey, is IC50 for CCn1cc(NC(=O)c2c(C)noc2C)ccc1=O lower than 0.4 µM or not?
Reply: label 0
